B1: glmS ribozyme (parent)
chain: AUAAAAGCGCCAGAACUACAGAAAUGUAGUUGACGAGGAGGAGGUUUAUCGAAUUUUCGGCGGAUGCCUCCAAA

- Variants of: B1
- TEST METHOD NOTES: self-cleavage kobs at 10000 uM GlcN6P; higher = faster cleavage; RNA array
- CONDITION SET: with glucosamine-6-phosphate
Fewer inactive variants are shown than the library holds.
MEASURED PARAMETER: self-cleavage kobs at 10000 uM GlcN6P

Example variants with recorded self-cleavage kobs at 10000 uM GlcN6P:
AUAAAAGCGCCAGAACUACAGAAAUGUAGUUGACGAGGAGGAGGUUUAUCGAAUUCUCGGCUGAUGCCUCCAAA [U56C G62U]; < 1e-05 s⁻¹
AUAAAAGCGCCAGAACUACAGAAAUGUAGUUGACGAGGAGGAGGUUUAUCGAAUCUUCGGCAGAUGCCUCCAAA [U55C G62A]; < 1e-05 s⁻¹
AUAAAAUCGCCAGAACUACAGAAAUGUAGUUGACGAGGAGGAGGUUUAUCGAAUUUUCGGCGGAUGCCUCUAAA [G7U C71U]; < 1e-05 s⁻¹
AUAAAAGUGCCAGAACUACAGAAAUGUAGUUGACGAGGAGGAGGUUUUUCGAAUUUUCGGCGGAUGCCUCUAAA [C8U A48U C71U]; < 1e-05 s⁻¹
AUAAAAUCGCCAGAACUACAGAAAUGUAGUUGACGAGGAGGAGGUUUAUAGAAUUUUCGGCGGAUGCCUCCAAA [G7U C50A]; < 1e-05 s⁻¹
AUAAAAGCGCCAGAACUACAGAAAUGUAGUUGACGAGGAGUAGGUUUAUCGAAUUUUCGGCGGAAGCCUCCAAA [G41U U65A]; 0.000183 s⁻¹
AUAAAAGCGCCAGAUCUACAGAAAUGUAGUUGACGAGGACGAGGUUUAUCGAAUUUUCGGCGGAUGCCUCCAAA [A15U G40C]; 0.000269 s⁻¹
AUAAAAGCGCCAGAACUACAGAAAUGUAGUUGACGAGGAGGAGGUUUUUCGAAUUUUCAGCGGAUGCCUCCAAA [A48U G59A]; < 1e-05 s⁻¹

Just so you know, measured self-cleavage kobs at 10000 uM GlcN6P for AUAAAAGCGACAGAACUACAGAAAUGUAGUUGACGAGGAAGAGGUUUAUCGAAUUUUCGGCGGAUGCCUCCAAA [C10A G40A] came out at < 1e-05 s⁻¹

Just so you know, measured self-cleavage kobs at 10000 uM GlcN6P for AUAAAAGCGCCAGAACUACAGAAAUGUAGUUGACGAGGAUAAGGUUUAUCGAAUUUUCGGCGGAUGCCUCCAAA [G40U G41A] came out at 0.000104 s⁻¹

Just so you know, measured self-cleavage kobs at 10000 uM GlcN6P for AUAAAAGCCCUAGAACUACAGAAAUGUAGUUGACGAGGAGGAGGUUUAUCGAAUUUUCGGGGGAUGCCUCCAAA [G9C C11U C61G] came out at 0.000219 s⁻¹

Just so you know, measured self-cleavage kobs at 10000 uM GlcN6P for AUAAAAGCGCCAGAACUACAGAAAUGUACCUGACGAGCAGGAGAUUUCUCGAAUGUUCGGCGGAUGCCUCCAAA [G29C U30C G38C G44A A48C U55G] came out at < 1e-05 s⁻¹

Just so you know, measured self-cleavage kobs at 10000 uM GlcN6P for AUAAAAGCGCCAGGGCUACAGAAAUGUAGUUGACGAGGAGGAGGUUUCUCGAAUUUUCGGCGGAUGCCUCCAAA [A14G A15G A48C] came out at 0.00148 s⁻¹
